Provenance of the data: the supplement of paper PMC6555819

For each entry below, report its PBM binding z-score value.
- Tested on: PPARg:RXRa 270nM:90nM, anti-RXR (NR concentration 270 nM, RXRa partner concentration 90 nM)
- Assay Remarks: PBM binding z-score (relative to random genomic background probes); higher = stronger binding; sequences stand for … in GC…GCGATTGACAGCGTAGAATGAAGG
Give the value as a plain number.

Q) State the recorded PBM binding z-score for this entry: "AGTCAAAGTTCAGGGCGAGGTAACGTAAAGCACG"
A) 5.24

Q) Query "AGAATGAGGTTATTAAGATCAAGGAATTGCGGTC" next
A) 2.2

Q) Query "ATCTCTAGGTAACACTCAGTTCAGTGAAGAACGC" next
A) 0.736

Q) Query "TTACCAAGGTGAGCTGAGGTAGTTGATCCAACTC" next
A) -0.0423

Q) Query "CCTGCTAGGTCAATGGTCATCTAAAGCAGCTCGC" next
A) 5.48

Q) Query "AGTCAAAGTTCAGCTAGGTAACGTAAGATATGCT" next
A) 4.73

Q) Query "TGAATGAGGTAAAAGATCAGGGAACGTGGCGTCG" next
A) 5.02

Q) Query "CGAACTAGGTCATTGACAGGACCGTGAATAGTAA" next
A) 6.36

Q) Query "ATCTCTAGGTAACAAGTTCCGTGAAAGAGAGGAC" next
A) 1.28

Q) Query "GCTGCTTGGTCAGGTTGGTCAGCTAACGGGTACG" next
A) -0.648

Q) Query "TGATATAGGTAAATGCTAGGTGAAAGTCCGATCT" next
A) 1.84

Q) Query "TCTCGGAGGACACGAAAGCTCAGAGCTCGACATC" next
A) 0.762
